assay: Absorption and emission spectra, fluorescence quantum efficiency in EtOH, PBS and lipid vesicles (MLV); type: physicochemical; settings: in PBS
This listing pairs molecules with measured absorption maximum.
metric: absorption maximum (nm)

INSERT INTO measurements (molecule, metric, meas_value) VALUES
  ('CCCCCCN(CCCCCC)c1ccc2c(c1)OCC(/C=C/c1cc[n+](CCCS(=O)(=O)[O-])cc1F)=C2 [1c]', 'absorption maximum', 515),
  ('CCCCN(CCCC)c1ccc2cc(/C=C/c3cc[n+](CCCS(=O)(=O)[O-])cc3)ccc2c1 [Di-4-ANEPPS, reference compound]', 'absorption maximum', 447),
  ('CCCCN(CCCC)c1ccc2c(c1)OCC(/C=C/c1cc[n+](CCCS(=O)(=O)[O-])cc1F)=C2 [1a]', 'absorption maximum', 546),
  ('CCCCCN(CCCCC)c1ccc2c(c1)OCC(/C=C/c1cc[n+](CCCS(=O)(=O)[O-])cc1F)=C2 [1b]', 'absorption maximum', 552),
  ('CCCCN(CCCC)c1ccc2cc(/C=C/c3c(F)c[n+](CCC[N+](CC)(CC)CC)c4ccccc34)ccc2c1.[Br-].[Br-] [ElectroFluor630, Di-4-ANEQ (F) PTEA, reference compound]', 'absorption maximum', 565),
  ('CCCCCN(CCCCC)c1ccc2c(c1)OCC(/C=C/c1c(F)c[n+](CCC[N+](CC)(CC)CC)c3ccccc13)=C2.[Br-].[Br-] [2b]', 'absorption maximum', 628),
  ('CCCCCCN(CCCCCC)c1ccc2c(c1)OCC(/C=C/c1c(F)c[n+](CCC[N+](CC)(CC)CC)c3ccccc13)=C2.[Br-].[Br-] [2c]', 'absorption maximum', 597),
  ('CCCCN(CCCC)c1ccc2c(c1)OCC(/C=C/c1c(F)c[n+](CCC[N+](CC)(CC)CC)c3ccccc13)=C2.[Br-].[Br-] [2a]', 'absorption maximum', 633);

====

Assay: Absorption and emission spectra, fluorescence quantum efficiency in EtOH, PBS and lipid vesicles (MLV)
Format: physicochemical
Settings: membrane-bound (MLV)
Procedure: FIGS. 2A-2C are plots showing absorption and emission spectra of 2a, in comparison with ElectroFluor630, in various solvent environments: MLV, EtOH, and PBS. […] All chemicals were purchased from commercial sources (Sigma Aldrich, Acros, TCI America, Combi-Blocks, and others) and used without further purification. […] NMR spectra were recorded on Varian 400 MHz, 500 MHz, and 800 MHz instruments at the UConn Heath Structural Biology Facility. […]
Tag: 1 if measured emission maximum is not below 700 nm, 0 if it is.

INSERT INTO results (compound, class) VALUES
  ('CCCCCCN(CCCCCC)c1ccc2c(c1)OCC(/C=C/c1c(F)c[n+](CCC[N+](CC)(CC)CC)c3ccccc13)=C2.[Br-].[Br-]', 1),
  ('CCCCCCN(CCCCCC)c1ccc2c(c1)OCC(/C=C/c1cc[n+](CCCS(=O)(=O)[O-])cc1F)=C2', 0),
  ('CCCCN(CCCC)c1ccc2c(c1)OCC(/C=C/c1cc[n+](CCCS(=O)(=O)[O-])cc1F)=C2', 0),
  ('CCCCCN(CCCCC)c1ccc2c(c1)OCC(/C=C/c1c(F)c[n+](CCC[N+](CC)(CC)CC)c3ccccc13)=C2.[Br-].[Br-]', 1),
  ('CCCCN(CCCC)c1ccc2cc(/C=C/c3cc[n+](CCCS(=O)(=O)[O-])cc3)ccc2c1 [Di-4-ANEPPS, reference compound]', 0),
  ('CCCCN(CCCC)c1ccc2c(c1)OCC(/C=C/c1c(F)c[n+](CCC[N+](CC)(CC)CC)c3ccccc13)=C2.[Br-].[Br-]', 1),
  ('CCCCCN(CCCCC)c1ccc2c(c1)OCC(/C=C/c1cc[n+](CCCS(=O)(=O)[O-])cc1F)=C2', 0);
